Origin of values: the supplement of paper PMC7877785

# self-splicing fitness (ln) listing for each entry below
- PROTOCOL_TEXT: self-splicing fitness, log relative to wild type (ln ratio); higher = more splicing; Tetrahymena group I intron in knt gene, E. coli kanamycin selection, DiMSum; sequences stand for … in CUCUCU…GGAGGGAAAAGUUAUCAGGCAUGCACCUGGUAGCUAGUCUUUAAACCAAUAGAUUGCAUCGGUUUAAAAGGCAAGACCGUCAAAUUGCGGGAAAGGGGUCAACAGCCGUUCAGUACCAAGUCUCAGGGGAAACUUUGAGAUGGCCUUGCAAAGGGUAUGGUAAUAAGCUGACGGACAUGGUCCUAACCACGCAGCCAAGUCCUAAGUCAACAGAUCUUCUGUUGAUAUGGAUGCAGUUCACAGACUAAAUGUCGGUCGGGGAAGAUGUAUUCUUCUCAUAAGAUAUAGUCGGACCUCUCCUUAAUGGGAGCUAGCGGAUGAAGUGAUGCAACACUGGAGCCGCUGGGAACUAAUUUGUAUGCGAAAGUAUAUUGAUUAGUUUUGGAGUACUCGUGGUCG;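 further: selection with 25 µg/mL kanamycin versus none on LB agar overnight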
- CONDITION_NOTES: 30 °C

Item: `GGAUAGCAAUAUUACGAAAG` | self-splicing fitness (ln): -2.79

Item: `AAACAGCAAUAUUACGGUUU` | self-splicing fitness (ln): -3.64

Item: `CGUGAGCAAUAUUACGCAUU` | self-splicing fitness (ln): -4.1

Item: `GAUAAGCAAUAUUACGGAAA` | self-splicing fitness (ln): -2.35

Item: `CCUAAGCAAUAUUACGCGCG` | self-splicing fitness (ln): -3.42

New cases:
Item: `CGACAGCAAUAUUACGACGG` | self-splicing fitness (ln): 0.243

Item: `GUUUAGCAAUAUUACGAUCU` | self-splicing fitness (ln): -0.663

Item: `CUGGAGCAAUAUUACGUAUA` | self-splicing fitness (ln): -3.12

Item: `CUACAGCAAUAUUACGUAAG` | self-splicing fitness (ln): -1.14

Item: `UUUAAGCAAUAUUACGAGGU` | self-splicing fitness (ln): -3.65

Item: `CUCUAGCAAUAUUACGAUUG` | self-splicing fitness (ln): -1.48

Item: `UAACAGCAAUAUUACGGCCG` | self-splicing fitness (ln): -0.568

Item: `ACGUAGCAAUAUUACGCUUU` | self-splicing fitness (ln): -1.92

Item: `ACGGAGCAAUAUUACGGUAC` | self-splicing fitness (ln): -4.95

Item: `ACCCAGCAAUAUUACGCACA` | self-splicing fitness (ln): -1.56

Item: `UAACAGCAAUAUUACGUAGG` | self-splicing fitness (ln): -2.08

Item: `GGGGAGCAAUAUUACGGUGU` | self-splicing fitness (ln): -3.87

Item: `ACCCAGCAAUAUUACGGCAG` | self-splicing fitness (ln): -3.84

Item: `CACUAGCAAUAUUACGAUCU` | self-splicing fitness (ln): -3.56

Item: `CGAAAGCAAUAUUACGAAGU` | self-splicing fitness (ln): -3.07

Item: `CCACAGCAAUAUUACGUUCG` | self-splicing fitness (ln): -1.21

Item: `ACGUAGCAAUAUUACGCGGA` | self-splicing fitness (ln): -2.05

Item: `GAUCAGCAAUAUUACGCAUA` | self-splicing fitness (ln): -0.521

Item: `UAUCAGCAAUAUUACGGUUG` | self-splicing fitness (ln): -0.952

Item: `GCUCAGCAAUAUUACGUCAU` | self-splicing fitness (ln): -2.27

Item: `GUUCAGCAAUAUUACGACUU` | self-splicing fitness (ln): -0.0631

Item: `AGACAGCAAUAUUACGUGCU` | self-splicing fitness (ln): -3.14

Item: `UGCCAGCAAUAUUACGCGAA` | self-splicing fitness (ln): -1.33

Item: `CAAUAGCAAUAUUACGACUA` | self-splicing fitness (ln): -1.96

Item: `CCGGAGCAAUAUUACGCGCU` | self-splicing fitness (ln): -1.24

Item: `ACGUAGCAAUAUUACGAGCU` | self-splicing fitness (ln): -1.36

---

- PROTOCOL_TEXT: self-splicing fitness, log relative to wild type (ln ratio); higher = more splicing; Tetrahymena group I intron in knt gene, E. coli kanamycin selection, DiMSum; sequences stand for … in CUCUCU…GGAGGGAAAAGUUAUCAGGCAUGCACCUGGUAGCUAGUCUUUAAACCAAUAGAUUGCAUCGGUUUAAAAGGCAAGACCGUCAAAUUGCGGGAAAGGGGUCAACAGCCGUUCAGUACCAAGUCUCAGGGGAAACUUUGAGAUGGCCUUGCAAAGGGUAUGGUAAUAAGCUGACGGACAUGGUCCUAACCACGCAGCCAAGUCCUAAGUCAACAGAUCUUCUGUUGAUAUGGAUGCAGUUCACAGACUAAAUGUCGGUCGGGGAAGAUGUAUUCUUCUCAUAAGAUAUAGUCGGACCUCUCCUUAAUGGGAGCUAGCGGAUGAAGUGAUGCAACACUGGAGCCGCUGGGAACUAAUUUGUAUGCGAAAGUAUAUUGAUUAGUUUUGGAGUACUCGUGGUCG
- CONDITION_NOTES: 37 °C
# self-splicing fitness (ln) listing for each entry below
API doc: respond with a numeric literal and nothing else, no unit.

Worked cases, self-splicing fitness (ln) given:
Item: `UGCGAGCAAUAUUACGACUU` | self-splicing fitness (ln): -1.7

Item: `AUUUAGCAAUAUUACGUUUG` | self-splicing fitness (ln): -1.25

Item: `GGCUAGCAAUAUUACGUCUA` | self-splicing fitness (ln): -0.105

Item: `UGAAAGCAAUAUUACGUUUA` | self-splicing fitness (ln): -0.471

Item: `UAAAAGCAAUAUUACGCGAA` | self-splicing fitness (ln): -0.719

New cases:
Item: `CAAUAGCAAUAUUACGGAGU` | self-splicing fitness (ln): -2.04

Item: `UAGAAGCAAUAUUACGCAAG` | self-splicing fitness (ln): -0.64

Item: `ACAUAGCAAUAUUACGCGGU` | self-splicing fitness (ln): -2.86

Item: `UGAUAGCAAUAUUACGCGUU` | self-splicing fitness (ln): -2.54

Item: `ACCUAGCAAUAUUACGUGGC` | self-splicing fitness (ln): -2.02

Item: `CGCUAGCAAUAUUACGCCUA` | self-splicing fitness (ln): -3.05

Item: `AAAGAGCAAUAUUACGAUGA` | self-splicing fitness (ln): -2.02

Item: `GCGCAGCAAUAUUACGAACA` | self-splicing fitness (ln): -1.32

Item: `GGAUAGCAAUAUUACGGAUU` | self-splicing fitness (ln): -0.787

Item: `GCUGAGCAAUAUUACGUAAA` | self-splicing fitness (ln): -2.31

Item: `AAUGAGCAAUAUUACGUAUG` | self-splicing fitness (ln): -2.92

---

- PROTOCOL_TEXT: self-splicing fitness, log relative to wild type (ln ratio); higher = more splicing; Tetrahymena group I intron in knt gene, E. coli kanamycin selection, DiMSum; sequences stand for … in CUCUCU…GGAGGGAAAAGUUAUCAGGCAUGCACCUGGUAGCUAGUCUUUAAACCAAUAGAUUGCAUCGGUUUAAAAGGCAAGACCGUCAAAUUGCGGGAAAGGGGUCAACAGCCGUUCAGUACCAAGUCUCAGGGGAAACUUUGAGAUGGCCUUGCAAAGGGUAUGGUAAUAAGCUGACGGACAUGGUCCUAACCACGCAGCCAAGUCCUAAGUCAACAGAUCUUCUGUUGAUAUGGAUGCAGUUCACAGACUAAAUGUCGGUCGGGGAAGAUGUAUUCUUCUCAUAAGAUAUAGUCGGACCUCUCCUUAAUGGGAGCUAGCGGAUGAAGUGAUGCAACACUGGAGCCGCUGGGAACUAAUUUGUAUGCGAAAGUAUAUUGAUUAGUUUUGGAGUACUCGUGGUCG
- CONDITION_NOTES: 30 °C
Values of self-splicing fitness (ln) greater than or equal to -1 map to satisfied; values below map to not satisfied.

Examples with answers:
Does the reported self-splicing fitness (ln) for `UCGGAGCAAUAUUACGCGUC` fall at or above the -1 mark?
not satisfied

Does the reported self-splicing fitness (ln) for `UAUAAGCAAUAUUACGCCUG` fall at or above the -1 mark?
satisfied

// next entry
Does the reported self-splicing fitness (ln) for `GUAGAGCAAUAUUACGAAGU` fall at or above the -1 mark?
not satisfied

---

- PROTOCOL_TEXT: self-splicing fitness, log relative to wild type (ln ratio); higher = more splicing; Tetrahymena group I intron in knt gene, E. coli kanamycin selection, DiMSum; sequences stand for … in CUCUCU…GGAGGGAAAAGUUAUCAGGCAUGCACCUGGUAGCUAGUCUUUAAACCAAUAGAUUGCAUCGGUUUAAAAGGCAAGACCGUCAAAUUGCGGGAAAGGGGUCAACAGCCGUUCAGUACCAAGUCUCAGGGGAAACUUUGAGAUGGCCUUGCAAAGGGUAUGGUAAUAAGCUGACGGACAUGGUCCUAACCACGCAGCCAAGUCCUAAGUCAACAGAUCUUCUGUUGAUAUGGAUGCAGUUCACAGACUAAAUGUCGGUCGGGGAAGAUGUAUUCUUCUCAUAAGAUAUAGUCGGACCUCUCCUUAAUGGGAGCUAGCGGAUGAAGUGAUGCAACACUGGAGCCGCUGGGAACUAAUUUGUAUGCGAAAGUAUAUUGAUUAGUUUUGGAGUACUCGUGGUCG
- CONDITION_NOTES: 30 °C
ASSAY_READOUT: self-splicing fitness (ln)
API doc: respond with a numeric literal and nothing else, no unit.

Worked cases, self-splicing fitness (ln) given:
Item: `AACGAGCAAUAUUACGCUCG` | self-splicing fitness (ln): -2.55

Item: `UGGCAGCAAUAUUACGGUCC` | self-splicing fitness (ln): -0.382

Item: `CGAUAGCAAUAUUACGGCAG` | self-splicing fitness (ln): -0.958

Item: `GUAGAGCAAUAUUACGACUU` | self-splicing fitness (ln): -0.172

New cases:
Item: `CAAUAGCAAUAUUACGCCAC` | self-splicing fitness (ln): -2.84

Item: `UGGCAGCAAUAUUACGCGAA` | self-splicing fitness (ln): -0.273

Item: `UGGAAGCAAUAUUACGAUAA` | self-splicing fitness (ln): -1.6

Item: `AUGUAGCAAUAUUACGCGAG` | self-splicing fitness (ln): -1.71

Item: `UCAAAGCAAUAUUACGACCC` | self-splicing fitness (ln): -3.88

Item: `CACAAGCAAUAUUACGAGAA` | self-splicing fitness (ln): -2.29

Item: `CUGGAGCAAUAUUACGACAA` | self-splicing fitness (ln): -2.11

Item: `UCAAAGCAAUAUUACGGUUU` | self-splicing fitness (ln): -3.06

Item: `GAUUAGCAAUAUUACGGAGG` | self-splicing fitness (ln): -2.45

Item: `UGAGAGCAAUAUUACGACGU` | self-splicing fitness (ln): -2.66

Item: `AAACAGCAAUAUUACGGCUU` | self-splicing fitness (ln): -0.312

Item: `AUGUAGCAAUAUUACGAAUG` | self-splicing fitness (ln): -2.89

Item: `UUGCAGCAAUAUUACGACUA` | self-splicing fitness (ln): 0.37

Item: `UUGGAGCAAUAUUACGGAGG` | self-splicing fitness (ln): -2.92

Item: `GAUAAGCAAUAUUACGUCUG` | self-splicing fitness (ln): -2.51
